# assayedSystem: T1, hIgG (IgG pool from human serum containing hIgG1, hIgG2, hIgG3, hIgG4; Fluka reference number 56834)
# T1 construct: Polyclonal mixture from human serum; also called human IgG; Immunoglobulin G from human serum
# assayInfo: SPR (BIAcore 3000), hIgG on CM5 chip, binder injected, 1:1 global fit
pKd: −log10 of the molar value.
assayReadout: pKd

>>> assayresult("C3 binder (designed binder, Sac7d variant made with a His-tag in E. coli; monomeric by gel filtration; Used free, biotinylated on a streptavidin chip, labelled with AlexaFluor 680, or NHS-coupled to agarose, as said under assay; also called clone C3; not shown: RGS-(His)6 tag from vector pFP1001 (pQE30 derivative)) SVKVKFLLNGEEKEVDTSKIRDVCRQGKNVKFLYNDNGKYGAGNVDEKDAPKELLDMLARAEREKK")
7.13
